Taken from patent US10005767B2.

IC50 values by entry
Test system: human primary T-cells, IL-2 stimulated proliferation (JAK-1 and JAK-3 dependent; reported as JAK3 activity)
Assay Explanation: Human primary T-cell proliferation stimulated by IL-2 (Example 3)
Format: cell-based
Condition Info: Homo sapiens, T-cell, tested under conditions described in Example 3 (IL-2 stimulated human primary T-cell proliferation); read-out: ability to inhibit JAK3 activity, IC50 range (Table V)
Structures can show the parent of a compound that is named as a salt.
Assay Endpoint: IC50

- Compound: "Cc1cnc(Nc2c(C)cccc2C)nc1Nc1ccc2oc(=O)[nH]c2c1 [IV-60]"
  Measured: "5000 to 10000 nM"
- Compound: "Cc1cc(C)cc(Nc2ncc(C)c(Nc3cc(C)c4oc(=O)[nH]c4c3)n2)c1 [Compound I-474]"
  Measured: "< 500 nM"
- Compound: "Cc1cnc(Nc2cc(C)c(F)c(C)c2)nc1Nc1cc(C)c2oc(=O)[nH]c2c1 [Compound I-476]"
  Measured: "> 10000 nM"
- Compound: "CCN(CC)C1CCN(C2CCCCc3ccc(Nc4ncc(C)c(Nc5ccc6oc(=O)[nH]c6c5)n4)cc32)C1 (centres unmarked) [IV-13]"
  Measured: "500 to 5000 nM"
- Compound: "Cc1cnc(Nc2cc(F)c(F)c(F)c2F)nc1Nc1ccc2oc(=O)[nH]c2c1 [Compound I-477]"
  Measured: "500 to 5000 nM"
- Compound: "COc1c(C)cc(Nc2ncc(C)c(Nc3ccc4oc(=O)[nH]c4c3)n2)cc1Cl [Compound I-265]"
  Measured: "< 500 nM"
- Compound: "Cc1cc(F)c(Nc2ncc(C)c(Nc3ccc4oc(=O)[nH]c4c3)n2)cc1C [Compound I-530]"
  Measured: "< 500 nM"
- Compound: "COc1ccc(Nc2ncc(C)c(Nc3ccc4oc(=O)[nH]c4c3)n2)cc1-c1ccncc1 [Compound I-486, formate salt]"
  Measured: "< 500 nM"
